These data points were gathered from PubChem BioAssay (NCI).

assay: NCI Yeast Anticancer Drug Screen. Data for the cln2 rad14 strain (AID 165);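 note: 0% = growth equal to vehicle treated cultures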; details: S. cerevisiae cln2 rad14 strain, at 50.0 µM, stronger effect = higher value
Compounds without any hit were thinned out: in the full panel of roughly 79,000, 15% have a hit.
Classify as follows. Reported growth inhibition greater than or equal to 90%: 1. Reported growth inhibition below: 0.

Take a look at these entries with their results.
Compound | Label
CCCCCCCCCCCCCCNC(=O)CCC(NC(=O)c1ccc(N(C)Cc2cnc3nc(N)nc(N)c3n2)cc1)C(=O)NCCCCCCCCCCCCCC (configuration not stated) | 0
COC(CO)(OC)c1ccccc1 | 0
C[N+]1(C)CCCC(OCCCCCCCCCCCCCCOC2CCC[N+](C)(C)C2)C1 (configuration not stated) | 1
C=CCNCCC1CCCCCC1 | 0
NS(=O)(=O)c1ccc(NC(=S)/N=C/c2c(O)c3ccccc3[nH]c2=O)cc1 | 0

Hi team, for Cn1c2c(c3nc(N)nc(N)c3c1=O)CCc1ccccc1-2 , is the recorded growth inhibition at or above 90%?
0

Hi team, for CN(C)CC[N+](C)(C)Cc1ccc(C[N+](C)(C)CC[N+](C)(C)Cc2ccc(CCl)cc2)cc1 , is the recorded growth inhibition at or above 90%?
1

Hi team, for CN=S(=O)(OCCCCCCCCCOS(=O)(=NC)c1ccc(C)cc1)c1ccc(C)cc1 (configuration not stated) , is the recorded growth inhibition at or above 90%?
0

Hi team, for CCN(C(C)=O)c1ccc2c(c1)Cc1ccccc1-2 , is the recorded growth inhibition at or above 90%?
1

Hi team, for Cc1ccc(S(=O)(=O)Oc2ccc(C(C)(C)C)cc2Cl)cc1 , is the recorded growth inhibition at or above 90%?
0

Hi team, for Cn1ncc2c(NCc3ccc(Cl)cc3)nc(Cl)nc21 , is the recorded growth inhibition at or above 90%?
1

Hi team, for O=C(Nc1cccc(C(F)(F)F)c1)C(Cl)=C(Cl)Cl , is the recorded growth inhibition at or above 90%?
1

Hi team, for O=C(/C=C(\C(=O)c1ccccc1)N(/C(=C/C(=O)c1ccccc1)C(=O)c1ccccc1)c1ccccc1)c1ccccc1 , is the recorded growth inhibition at or above 90%?
0

Hi team, for C=C1C(=O)C23OC2C1CCC(=O)C1(C)CC[C@H](OC(C)=O)C(C)(C)[C@H]1CC3O (some centres not stated) , is the recorded growth inhibition at or above 90%?
1

Hi team, for COc1ccc(C2=NN(c3ccccc3)C[N+](c3ccc(C)cc3)=N2)cc1 , is the recorded growth inhibition at or above 90%?
1

Hi team, for Cc1ccc(C(=O)OCCN2CCOCC2)c([N+](=O)[O-])c1OCc1ccccc1 , is the recorded growth inhibition at or above 90%?
0

Hi team, for C[n+]1c(-c2ccc(/C=N/Nc3n[nH]c(=S)n3/N=C/c3ccc(-c4cn5ccsc5[n+]4C)cc3)cc2)cn2ccsc21 , is the recorded growth inhibition at or above 90%?
1

Hi team, for O=C1C=C/C(=C(/c2ccc(O)c(O)c2)c2ccccc2S(=O)(=O)O)C=C1O , is the recorded growth inhibition at or above 90%?
0

Hi team, for CCCCOS(=O)(=O)c1ccc(C)cc1 , is the recorded growth inhibition at or above 90%?
0

Hi team, for CC1CCCC(CCN(C)CCC2CCCCC2)CC1 (configuration not stated) , is the recorded growth inhibition at or above 90%?
1

Hi team, for O=C(c1cccs1)N(C(=S)N1CCN(c2ccccn2)CC1)C1CCCCC1 , is the recorded growth inhibition at or above 90%?
0

Hi team, for CN1C(=S)C(=N)OC1c1ccccc1F (configuration not stated) , is the recorded growth inhibition at or above 90%?
0

Hi team, for O=S(=O)(N=S(c1ccc(Cl)cc1)c1ccc(Cl)cc1)c1ccccc1 , is the recorded growth inhibition at or above 90%?
0

Hi team, for CCCCC1(CC)COC(c2ccccc2OC)OC1 (configuration not stated) , is the recorded growth inhibition at or above 90%?
0

Hi team, for CC1=CCC[C@@H]2C1(C)CCC(C)[C@@]2(C)CC1=CC(=O)C=CC1=O (some centres not stated) , is the recorded growth inhibition at or above 90%?
0

Hi team, for CC(CN(C)C)C(/C=C/c1ccc(F)cc1)=N\Nc1ccccc1 (configuration not stated) , is the recorded growth inhibition at or above 90%?
0

Hi team, for C[CH2][Sn]([CH2]C)([O]C(=O)c1ccccc1OC)[O][Sn]([CH2]C)([CH2]C)[O]C(=O)c1ccccc1OC , is the recorded growth inhibition at or above 90%?
0

Hi team, for CCN(CC)CCCNc1c2c(Cl)cc(Cl)cc2nc2nc(=O)[nH]c(C)c12 , is the recorded growth inhibition at or above 90%?
0

Hi team, for C1=C(CC2=C[P+](c3ccccc3)(c3ccccc3)C=C(c3ccccc3)O2)OC(c2ccccc2)=C[P+]1(c1ccccc1)c1ccccc1 , is the recorded growth inhibition at or above 90%?
0
